Assay: Pharmacokinetics in beagle dogs after intravenous administration
Format: in vivo
Details: both sexes, dog, plasma, iv; beagle dogs, 4.18 mg kg^−1
Method: Concentrations of ET-26-HCl and ET-26-acid in biological samples were determined by liquid chromatography–tandem mass spectrometry (LC–MS/MS) after deproteinization with methanol. The bioanalytical method for simultaneous quantification of ET-26-HCl and ET-26-acid in the different matrix was fully validated according to FDA guidelines (electronic supplementary material, figure S1 and tables S1 and S2) in our previous study. […] Supernatant was collected and analysed by LC–MS/MS system. […]
Reported metric: Cmax (ng/mL)

molecule="COCCOC(=O)c1cncn1[C@H](C)c1ccccc1.Cl [ET-26-HCl]" readout_value=6230

====

Assay: Plasma protein binding, equilibrium dialysis, rat plasma
Type: in vitro ADME
Conditions: measured concentration 654 ng ml^−1
Reported metric: fraction unbound at 9 h, 654 ng ml^−1

molecule="COCCOC(=O)c1cncn1[C@H](C)c1ccccc1.Cl [ET-26-HCl]" reported_metric="fraction unbound at 9 h, 654 ng ml^−1" readout_value=0.181

====

Test: Pharmacokinetics in beagle dogs after intravenous administration
Type: in vivo
Conditions: both sexes, dog, plasma, iv; beagle dogs, 2.09 mg kg^−1
Reported metric: clearance (mL/min/kg)

compound="COCCOC(=O)c1cncn1[C@H](C)c1ccccc1.Cl [ET-26-HCl]" reported_metric=clearance readout_value=30

====

Experiment: Plasma protein binding, equilibrium dialysis, mouse plasma
Format: in vitro ADME
Details: measured concentration 5.23 × 10^3 ng ml^−1, read-out: protein binding (converted)
Reported metric: fraction unbound at 9 h

compound="COCCOC(=O)c1cncn1[C@H](C)c1ccccc1.Cl [ET-26-HCl]" reported_metric="fraction unbound at 9 h" readout_value=0.0702

====

Experiment: Pharmacokinetics in beagle dogs after intravenous administration
Assay type: in vivo
Settings: both sexes, dog, plasma, iv; beagle dogs, 1.045 mg kg^−1
Reported metric: clearance (mL/min/kg)

molecule="COCCOC(=O)c1cncn1[C@H](C)c1ccccc1.Cl [ET-26-HCl]" reported_metric=clearance units_of_measure=mL/min/kg readout_value=32

====

Test: Metabolic stability in dog liver microsomes
Type: in vitro ADME
Conditions: pH 7.4; dog liver microsomes, Cprotein 0.33 mg ml^−1
Reported metric: half-life (min)

compound="COCCOC(=O)c1cncn1[C@H](C)c1ccccc1.Cl [ET-26-HCl]" readout_value=4.5

====

Assay: Pharmacokinetics in beagle dogs after intravenous administration
Assay type: in vivo
Conditions: both sexes, beagle, dog, plasma, iv, 2.09 mg/kg, beagle dogs, 2.09 mg kg^−1
Reported metric: half-life

molecule="COCCOC(=O)c1cncn1[C@H](C)c1ccccc1.Cl [ET-26-HCl]" reported_metric=half-life readout_value="~1 h"

====

Assay: Pharmacokinetics in beagle dogs after intravenous administration
Assay type: in vivo
Settings: both sexes, beagle, dog, plasma, iv, 2.09 mg/kg, beagle dogs, 2.09 mg kg^−1
Reported metric: Vd

molecule="COCCOC(=O)c1cncn1[C@H](C)c1ccccc1.Cl [ET-26-HCl]" readout_value="~4 L/kg"

====

Test: Plasma protein binding, equilibrium dialysis, mouse plasma
Assay type: in vitro ADME
Details: measured concentration 654 ng ml^−1
Reported metric: fraction unbound at 9 h, 654 ng ml^−1

compound="COCCOC(=O)c1cncn1[C@H](C)c1ccccc1.Cl [ET-26-HCl]" readout_value=0.0453
